- test-system: recombinant human DHODH (Homo sapiens)
- Construct: made in house
- assay-overview: DHODH enzymatic assay (kinetic, DCIP reduction)
- Type: biochemical
- condition-info: 6 nM recombinant human DHODH; average of three independent repeats; read-out: DHODH inhibition (enzyme assay), IC50
pIC50: −log10 of the molar value.
readout-type: pIC50

1. CN(C)CCCCC(=O)Nc1ccc(NC(=S)NC(=O)c2ccc(C(C)(C)C)cc2)cc1 [Tenovin 6] : 6.30
2. CC(=O)Nc1ccc(NC(=S)NC(=O)c2ccc(C(C)(C)C)cc2)cc1 [Tenovin 1] : 6.95

---

- test-system: recombinant human DHODH (Homo sapiens, UniProt Q02127)
- Construct: made in house
- Sequence (Q02127 whole entry): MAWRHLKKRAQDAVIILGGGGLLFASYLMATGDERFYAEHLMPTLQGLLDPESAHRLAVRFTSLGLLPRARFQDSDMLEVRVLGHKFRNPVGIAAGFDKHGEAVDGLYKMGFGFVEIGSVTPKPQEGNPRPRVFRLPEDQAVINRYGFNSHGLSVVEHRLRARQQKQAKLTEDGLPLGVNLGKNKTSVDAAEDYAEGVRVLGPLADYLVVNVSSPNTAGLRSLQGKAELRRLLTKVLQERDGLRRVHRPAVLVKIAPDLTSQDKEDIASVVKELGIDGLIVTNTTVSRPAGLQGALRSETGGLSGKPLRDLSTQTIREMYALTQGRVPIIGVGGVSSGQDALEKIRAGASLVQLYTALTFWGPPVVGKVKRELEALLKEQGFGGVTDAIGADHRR
- assay-overview: DHODH enzymatic assay (kinetic, DCIP reduction)
- Assay type: biochemical
- condition-info: enzyme assay; read-out: DHODH IC50
pIC50: −log10 of the molar value.
readout-type: pIC50

1. CC(=O)Nc1ccc(NC(=S)NC(=O)c2ccc(C(C)(C)C)cc2)cc1 : ~6.95
